- target or system: NADPH oxidase 1 (Homo sapiens)
- procedure text: reconstituted NOX1 ROS output inhibition – cell-based, HEK/293, percent inhibition, luminescence, orthogonal assay for NOX1 inhibitor project, late-stage follow-up (AID 2545)
- reported conditions: NOX1-transfected HEK293, luminol ROS chemiluminescence; at 100 µM
The source made the active and inactive calls.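 The calls were made as follows: active = inhibition at or above 75%; inactive = inhibition below 75%.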
Answer with one of the outcomes given here: Y = active, N = inactive

CC(C)(C)c1csc(NNC(=O)c2ccc(Cl)cc2)n1 | N
CC(=O)Oc1ccc(OC(C)=O)c2c1[C@@H]1C=C[C@H]2CC1 | N
COc1ccc(Cl)cc1NC(=O)Nc1ccc(N(C)C)cc1 | Y
Nc1nc(Nc2ccccc2)n[nH]1 | N
CC(C)C(=O)NNc1nc2c(c(=O)n(C)c(=O)n2C)n1Cc1ccc(Cl)cc1 | N
O=C(NNc1c([N+](=O)[O-])cc(C(F)(F)F)cc1[N+](=O)[O-])c1ccccc1-n1cccc1 | N
CC1(C)CC(Nc2ccc(Nc3ccccc3)cc2)CC(C)(C)N1 | Y
COc1ccc(OC(=O)c2ccc3ncccc3c2)cc1 | N

State the result this test recorded for `Cc1cc(S(=O)(=O)NNc2ncnc3c2cnn3C)c(C)cc1Cl` . N

State the result this test recorded for `O=c1[nH]nc(N2CCSCC2)[nH]1` . N

State the result this test recorded for `COc1ccc(N(C)CC(=O)O)c(C(=O)O)c1` . N

State the result this test recorded for `O=C(Oc1ccccc1N1CCOCC1)c1cccs1` . N

* * *

- target or system: NADPH oxidase 1 (Homo sapiens) (UniProt Q9Y5S8)
- Sequence (Q9Y5S8 whole entry, looked up): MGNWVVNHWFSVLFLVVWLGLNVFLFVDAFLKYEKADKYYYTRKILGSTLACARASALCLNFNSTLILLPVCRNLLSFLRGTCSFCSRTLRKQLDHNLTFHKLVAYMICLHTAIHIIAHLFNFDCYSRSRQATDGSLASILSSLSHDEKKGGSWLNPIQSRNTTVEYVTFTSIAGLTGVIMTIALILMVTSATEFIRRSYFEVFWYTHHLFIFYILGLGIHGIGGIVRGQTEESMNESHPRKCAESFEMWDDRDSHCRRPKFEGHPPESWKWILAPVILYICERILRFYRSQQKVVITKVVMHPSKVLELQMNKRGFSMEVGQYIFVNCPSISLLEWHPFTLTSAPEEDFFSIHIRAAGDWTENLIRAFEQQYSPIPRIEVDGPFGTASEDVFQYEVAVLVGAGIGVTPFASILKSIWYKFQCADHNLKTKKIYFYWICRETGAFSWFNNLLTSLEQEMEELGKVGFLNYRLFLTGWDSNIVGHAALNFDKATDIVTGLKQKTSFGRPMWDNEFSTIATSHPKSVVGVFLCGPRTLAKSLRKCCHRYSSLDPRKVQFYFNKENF
- procedure text: reconstituted NOX1 ROS output inhibition – cell-based, HEK/293, percent inhibition, luminescence, orthogonal assay for NOX1 inhibitor project, late-stage follow-up (AID 2545)
- reported conditions: NOX1-transfected HEK293, luminol ROS chemiluminescence; at 100 µM
Active and inactive are the calls of the source.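 The calls were made as follows: active = inhibition at or above 75%; inactive = inhibition below 75%.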
Answer with one of the outcomes given here: Yes for active, No for inactive

Please review the entries below; each comes with its answer.
FC(F)(F)c1ccc2c(c1)Nc1ccccc1S2 | Yes
Cc1noc(C)c1C(=O)Nc1ccc(N2CCOCC2)nc1N1CCOCC1 | No
Cn1cnc(S(=O)(=O)Nc2ccc(N3CCCCC3)cc2)c1 | No
Cc1cc(Br)c(NC(=S)NNc2ccccc2)c(Br)c1 | No
Cn1nc(-c2ccccc2)c(O)c(N=Nc2ccccc2)c1=O | No

State the result this test recorded for `COc1cc2ncnc(NNC(=O)c3cccs3)c2cc1OC` . No

State the result this test recorded for `O=C(NNc1c([N+](=O)[O-])cc(C(F)(F)F)cc1[N+](=O)[O-])c1ccco1` . No

State the result this test recorded for `CCOC(=O)C1=C(Nc2ccc(OC(C)=O)cc2)C(=O)N(C(C)(C)C)C1` . No

State the result this test recorded for COc1cccc(NC(=S)NNC(=S)NC2CC3CCC2C3)c1 (centres undefined) . Yes

State the result this test recorded for `O=c1[nH]c2ccsc2c(=O)n1CCO` . No

State the result this test recorded for `ON/C=N/c1nnc(C(F)(F)F)s1` . No

State the result this test recorded for `Cc1cc(Cl)ccc1NC(=S)NNC(=S)Nc1ccc(F)cc1` . Yes

State the result this test recorded for `NS(=O)(=O)c1ccc(NNC(=O)c2c(F)cccc2Cl)cc1` . No

State the result this test recorded for `CN(C)c1ccc(/C=N/Nc2c(Cl)cncc2Cl)cc1` . Yes

State the result this test recorded for `Nc1nc(NCc2ccccn2)n[nH]1` . No

State the result this test recorded for `COc1cc(-c2nc(-c3ccccc3)c(-c3ccccc3)[nH]2)ccc1O` . Yes

State the result this test recorded for `O=C(N/N=C/c1ccc(O)cc1)N/N=C/c1ccc(O)cc1` . Yes

State the result this test recorded for `COCCCNC(=S)NNC(=S)Nc1ccccc1` . No

State the result this test recorded for `COc1ccccc1NNC(=O)c1cc(C(C)(C)C)nn1Cc1ccccc1` . No

State the result this test recorded for `Cc1cc(C(=O)NNc2cc(Cl)ccc2Cl)no1` . No
